Source listed as PubChem BioAssay AID1159580.

# normalized growth per record follows
experiment: chemical genetic growth profiling, strain panel (AID 1159580);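 note: tested at 20 µM; growth read once vehicle control cultures reached saturation at 30 °C; 1 = growth at the plate median or of vehicle wells; lower values mean less growth of the strain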; conditions: S. cerevisiae deletion strains, growth OD, locus YOR061W, strain CKA2, hits give low values
Out of some 5,500 compounds screened, about 2,000 (36%) were called active. Not shown: some 18% with an inconclusive outcome. Some of the results follow.
// no unit string in output, number only

Examples with their reported normalized growth follow.
Ask | For the compound `CN1CCN(C2=Nc3ccccc3Oc3ccc(Cl)cc32)CC1` , what normalized growth is on record?
Reply | 0.991

Ask | Quick one: normalized growth of `COC(=O)c1c(C)cc(OC(=O)c2c(C)cc(O)c(C=O)c2O)c(C)c1O` ?
Reply | 1

New cases:
Ask | What measured normalized growth goes with `O=C(O)c1ccccc1C(=O)Nc1ccc(S(=O)(=O)Nc2nccs2)cc1` ?
Reply | 1

Ask | Entry under review: COC(=O)CCC(C)C1CCC2C3CC[C@@H]4C[C@H](O)CC[C@]4(C)C3C[C@H](O)[C@]12C (stereo not given in full) . Reported normalized growth?
Reply | 0.999

Ask | Query: normalized growth; subject: `COc1cc(C)c(C(=O)Oc2cc(C)c(C(=O)O)c(O)c2C)c(OC)c1C`
Reply | 1.01

Ask | Entry under review: CCCCCC1C(=O)CCC1CC(=O)O (stereo not given) . Reported normalized growth?
Reply | 0.996

Ask | Quick one: normalized growth for C[C@H](CCC(=O)O)[C@H]1CCC2C3C(CC[C@@]21C)[C@@]1(C)CC[C@@H](O)C[C@H]1C[C@@H]3O (stereo not given in full) ?
Reply | 0.977

Ask | Tell me the measured normalized growth of CC[C@H](CCC(C)[C@H]1CCC2C3CCC4C[C@@H](O)CC[C@]4(C)C3CC[C@@]21C)C(C)C (stereo not given in full) , please.
Reply | 1.02

Ask | Which measured normalized growth value corresponds to NC(Cc1ccc(F)cc1)C(=O)O (stereo not given) ?
Reply | 1.02

Ask | Returns the measured normalized growth for the input compound. Input: CC(CCC(=O)O)[C@H]1CCC2C3CC[C@@H]4C[C@H](O)CC[C@]4(C)C3C[C@H](O)[C@@]21C (stereo not given in full)
Reply | 1

Ask | So what's the measured normalized growth for this one? `COC(=O)c1c(C)cc(OC(=O)c2c(C)c(Cl)c(O)c(C=O)c2O)c(C)c1O`
Reply | 0.999

Ask | Which measured normalized growth value corresponds to `N[C@@H](Cc1cc(I)c(Oc2ccc(O)c(I)c2)c(I)c1)C(=O)O` ?
Reply | 1.01

----------
assay: chemical genetic growth profiling, strain panel (AID 1159580);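 note: tested at 20 µM; growth read once vehicle control cultures reached saturation at 30 °C; 1 = growth at the plate median or of vehicle wells; lower values mean less growth of the strain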; settings: S. cerevisiae deletion strains, growth OD, locus YHR079C, strain IRE1 (second series), hits give low values
In all, about 5,500 compounds went through this assay and about 2,000 (36%) were called active. Inconclusive results (about 18%) are left out. This is one part of the list.
endpoint-name: normalized growth

Look over these answered cases.
Ask | // returns reported normalized growth for input `CC(=O)N=c1sc(S(N)(=O)=O)nn1C`
Reply | 1.01 (inactive)

Ask | Tell me the measured normalized growth of `Cc1cc(=O)oc2c(O)c(O)ccc12` , please.
Reply | 1 (inactive)

Ask | Form field: reported normalized growth of `CNCCCN1c2ccccc2CCc2ccccc21`
Reply | 1 (inactive)

Continuing:
Ask | I am curious: what normalized growth value has been reported for `O=C(O)Cc1cc(I)c(Oc2cc(I)c(O)c(I)c2)c(I)c1` ?
Reply | 0.973 (inactive)

Ask | # lookup: normalized growth of `CCOC(=O)[C@H](CCc1ccccc1)N[C@@H](C)C(=O)N1Cc2ccccc2C[C@H]1C(=O)O`
Reply | 1.01 (inactive)

Ask | Any idea what normalized growth was measured for `N[C@@H](Cc1cc(I)c(Oc2ccc(O)c(I)c2)c(I)c1)C(=O)O` ?
Reply | 0.99 (inactive)

Ask | Consider the compound `O=c1cc(-c2ccccc2)oc2cc(O)cc(O)c12` and give its measured normalized growth.
Reply | 0.92 (active)

----------
experiment: chemical genetic growth profiling, strain panel (AID 1159580);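 note: tested at 20 µM; growth read once vehicle control cultures reached saturation at 30 °C; 1 = growth at the plate median or of vehicle wells; lower values mean less growth of the strain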; conditions: S. cerevisiae deletion strains, growth OD, locus YKL085W, strain MDH1 (second series), hits give low values
The whole screen tested about 5,500 compounds, of which about 2,000 (36%) were called active. Inconclusive results (about 18%) are left out. Some of the results follow.
endpoint-name: normalized growth
Form rule: numeric answer, no unit written next to it.

Ask | Consider the compound shown here: CN1CC(CNC(=O)OCc2ccccc2)CC2c3cccc4c3c(cn4C)CC21 (stereo not drawn) What is its recorded normalized growth?
Reply | 0.975

Ask | Look up normalized growth for this compound: Cc1cc(C)cc(OCC2CNC(=O)O2)c1 (stereo not drawn)
Reply | 1.01

Ask | Would you kindly share the measured normalized growth for COc1cc2c(cc1O)C(Cc1ccc(O)cc1)N(C)CC2 (stereo not drawn) ?
Reply | 1.01

Ask | Fill in: normalized growth of `COc1c(Cl)ccc(Cl)c1C(=O)O` is ___
Reply | 1.01

Ask | normalized growth for `N[C@@H](Cc1cc(I)c(Oc2ccc(O)c(I)c2)c(I)c1)C(=O)O` ?
Reply | 1.03

Others:
Ask | Using the record for CC(CN1c2ccccc2Sc2ccccc21)N(C)C (stereo not drawn) , report its normalized growth.
Reply | 0.965

Ask | Fill blank: measured normalized growth of the compound CCCCCC1C(=O)CCC1CC(=O)OC (stereo not drawn) is ____.
Reply | 0.96

Ask | Requested field: normalized growth. Item: C[C@]12C=CC(=O)C=C1CCC1C3C[C@@H](O)[C@](O)(C(=O)CO)[C@@]3(C)C[C@H](O)[C@@]12F (stereo partly drawn)
Reply | 0.983

Ask | # lookup: normalized growth of CCCCCC1C(=O)CCC1CC(=O)O (stereo not drawn)
Reply | 0.992

Ask | Which normalized growth is listed for C[C@H](CCC(=O)O)[C@H]1CCC2C3C(CC[C@@]21C)[C@@]1(C)CC[C@@H](O)C[C@H]1C[C@@H]3O (stereo partly drawn) ?
Reply | 0.953

Ask | Query: normalized growth; subject: CC(CCC(=O)O)[C@H]1CCC2C3CC[C@@H]4CCCC[C@]4(C)C3CC[C@@]21C (stereo partly drawn)
Reply | 0.986

Ask | What measured normalized growth goes with CCN(CC)C(C)CN1c2ccccc2Sc2ccccc21 (stereo not drawn) ?
Reply | 0.972

Ask | What value of measured normalized growth is listed for `O=C(O)c1ccccc1C(=O)Nc1ccc(S(=O)(=O)Nc2nccs2)cc1` ?
Reply | 0.984

Ask | Form field: reported normalized growth of CC(C)CCCC(C)C1CCC2C3CC[C@H]4CCCC[C@]4(C)C3CC[C@]12C (stereo partly drawn)
Reply | 1.02

Ask | Return reported normalized growth; argument: `N[C@H](Cc1ccccc1)C(=O)O`
Reply | 1.01

----------
assay: chemical genetic growth profiling, strain panel (AID 1159580);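 note: tested at 20 µM; growth read once vehicle control cultures reached saturation at 30 °C; 1 = growth at the plate median or of vehicle wells; lower values mean less growth of the strain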; details: S. cerevisiae deletion strains, growth OD, locus YGL078C, strain dbp3, hits give low values
About 2,000 (36%) of roughly 5,500 compounds were called active. About 18% were inconclusive and are not listed. This is one part of the list.
Let's look at some compounds and their measured normalized growth.
Form: value (number only, do not type unit).

Ask | If you can, please state the reported normalized growth value of `NC(N)=NCCC[C@@H](NC(=O)[C@@H](N)Cc1ccc(O)cc1)C(=O)O` .
Reply | 1.01

Ask | Name the recorded normalized growth for CC1CC2C3CC(F)C4=CC(=O)C=CC4(C)C3(F)C(O)CC2(C)C1C(=O)COC(=O)C(C)(C)C (stereo unspecified) .
Reply | 1.02

Ask | I'd like to know its normalized growth. The compound in question is `C[C@H](N)[C@H](O)c1cccc(O)c1`
Reply | 0.995

Ask | # input compound: `Cc1cc(O)c(C=O)c2c1C(=O)Oc1c(COC(=O)/C=C/C(=O)O)c(O)c(C(=O)O)c(C)c1O2` ; wanted: its normalized growth
Reply | 0.969

Ask | // normalized growth lookup, key: COC(=O)CCC(=O)O[C@H]1CCC2(C)C(CCC3C2C(=O)[C@@H](O)C2(C)C3CC3OC4(CCC(C)CO4)[C@@H](C)C32)C1 (stereo partly specified)
Reply | 0.991

Ask | Give its normalized growth value. Item: `N[C@H](Cc1ccccc1)C(=O)O`
Reply | 1.02

Ask | Please report the recorded normalized growth for CCCCCC1C(=O)CCC1CC(=O)O (stereo unspecified) .
Reply | 0.988

Ask | Would you mind telling me what normalized growth value was observed for `O=c1cc(-c2ccccc2)oc2cc(O)c(O)c(O)c12` ?
Reply | 0.84

Further cases:
Ask | Data request, read-out normalized growth, for `Cc1cc(O)c(C)c2c1C(=O)Oc1c(C)c(O)c(C(=O)O)c(C)c1O2`
Reply | 0.968

Ask | Request the reported normalized growth associated with `COC(=O)c1c(C)cc(OC(=O)c2c(C)c(Cl)c(O)c(C=O)c2O)c(C)c1O`
Reply | 0.984

Ask | If you can, please state the reported normalized growth value of COc1cc2c(cc1O)C(Cc1ccc(O)cc1)N(C)CC2 (stereo unspecified) .
Reply | 0.984
